Recorded values, source PubChem BioAssay (EPA / NIEHS).

molecular target: Cellular tumor antigen p53 (Homo sapiens) (UniProt P04637); experiment: TOX21_p53_BLA_p3_ratio: Tox21 HCT-116 p53 Agonism Beta-lactamase Assay, Ratio, Phase 3 (AID 2283596)
Sequence (P04637 whole entry, looked up): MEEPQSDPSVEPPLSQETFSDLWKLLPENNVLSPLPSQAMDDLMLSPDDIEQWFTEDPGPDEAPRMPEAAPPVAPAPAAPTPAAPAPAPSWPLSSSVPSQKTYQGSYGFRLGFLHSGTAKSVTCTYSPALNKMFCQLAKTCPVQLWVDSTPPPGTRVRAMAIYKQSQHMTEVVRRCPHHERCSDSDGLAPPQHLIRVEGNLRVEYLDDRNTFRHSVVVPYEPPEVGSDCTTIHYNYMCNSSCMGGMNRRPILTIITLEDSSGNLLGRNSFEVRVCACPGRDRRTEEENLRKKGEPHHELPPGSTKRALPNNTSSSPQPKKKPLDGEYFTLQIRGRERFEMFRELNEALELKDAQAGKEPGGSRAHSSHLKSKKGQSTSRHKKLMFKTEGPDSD
Inconclusive results are not listed. Activity calls are given as the source filed them. Rule for the calls: active = hit-call score of the fitted dose curve at least 0.9, where 1 is the maximum; inconclusive = response in the unintended direction; inactive = score below 0.9.
Outcomes: active, inactive

{"Query smiles": "CC[C@H](C)[C@H]1O[C@]2(CC[C@@H]1C)C[C@@H]1C[C@@H](C/C=C(\\C)[C@@H](O[C@H]3C[C@H](OC)[C@@H](O[C@H]4C[C@H](OC)[C@@H](O)[C@H](C)O4)[C@H](C)O3)[C@@H](C)/C=C/C=C3\\CO[C@@H]4[C@H](O)C(C)=C[C@@H](C(=O)O1)[C@]34O)O2", "Assayed system": "Cellular tumor antigen p53 (Homo sapiens) (UniProt P04637)", "Classification": "active"}
{"Query smiles": "O[C@@H]([C@H](O)[C@H](O)CBr)[C@H](O)CBr", "Assayed system": "Cellular tumor antigen p53 (Homo sapiens) (UniProt P04637)", "Classification": "inactive"}
{"Query smiles": "CC(C)COC(=O)c1ccc(O)cc1", "Assayed system": "Cellular tumor antigen p53 (Homo sapiens) (UniProt P04637)", "Classification": "inactive"}
{"Query smiles": "CCc1c2c(nc3ccc(OC(=O)N4CCC(N5CCCCC5)CC4)cc13)-c1cc3c(c(=O)n1C2)COC(=O)[C@]3(O)CC", "Assayed system": "Cellular tumor antigen p53 (Homo sapiens) (UniProt P04637)", "Classification": "active"}
{"Query smiles": "CCCCCCCC[N+](CCCCCCCC)(CCCCCCCC)CCCCCCCC", "Assayed system": "Cellular tumor antigen p53 (Homo sapiens) (UniProt P04637)", "Classification": "active"}
{"Query smiles": "CCC(=O)OC", "Assayed system": "Cellular tumor antigen p53 (Homo sapiens) (UniProt P04637)", "Classification": "inactive"}
{"Query smiles": "CCCC(=O)OC(=O)CCC", "Assayed system": "Cellular tumor antigen p53 (Homo sapiens) (UniProt P04637)", "Classification": "inactive"}
{"Query smiles": "COc1c(Br)cc(Br)c(C)c1Br", "Assayed system": "Cellular tumor antigen p53 (Homo sapiens) (UniProt P04637)", "Classification": "inactive"}

----------
experiment: ATG_DR4_LXR_CIS: Attagene CIS-FACTORIAL HepG2 Assay for human Liver X Receptor (LXR), DR4 submotif (AID 2282929); details: HepG2 Attagene DR4 cis-reporter, mRNA transcription; actives raise or lower the signal
Calls of active or inactive are those of the source. The calls were made as follows: active = hit-call score of the fitted dose curve at least 0.9, where 1 is the maximum; inactive = score below 0.9.
Outcomes: active, inactive

{"Compound": "c1cc(N(CC2CO2)CC2CO2)ccc1Cc1ccc(N(CC2CO2)CC2CO2)cc1 (stereo unspecified)", "Classification": "active"}
{"Compound": "Cc1cc2nc3c(=O)[nH]c(=O)nc-3n(C[C@H](O)[C@H](O)[C@H](O)CO)c2cc1C", "Classification": "inactive"}
{"Compound": "OCCOCCOCCOCCOCCO", "Classification": "inactive"}
{"Compound": "CCC(C)NC(N)=O (stereo unspecified)", "Classification": "inactive"}
{"Compound": "CN(C)N=Nc1ccccc1", "Classification": "inactive"}
{"Compound": "[O-][n+]1ccc(Cl)cc1", "Classification": "inactive"}
{"Compound": "N#CCN(CC#N)CCN(CC#N)CC#N", "Classification": "inactive"}
{"Compound": "CCCCCCCCCCC1CO1 (stereo unspecified)", "Classification": "inactive"}
{"Compound": "CCCCNC(N)=O", "Classification": "inactive"}
{"Compound": "CCC(C)(CCC(C)C)C(=O)O (stereo unspecified)", "Classification": "inactive"}
{"Compound": "NC(N)=Nc1nc(CSCCC(N)=NS(N)(=O)=O)cs1", "Classification": "inactive"}
{"Compound": "CC(O)(P(=O)(O)O)P(=O)(O)O", "Classification": "inactive"}
{"Compound": "OCCN(CCO)c1cccc(Cl)c1", "Classification": "inactive"}
{"Compound": "CCC(C)C1N=C(C)C(C)S1 (stereo unspecified)", "Classification": "inactive"}
{"Compound": "O=[N+]([O-])c1ccc2nc[nH]c2c1", "Classification": "inactive"}
{"Compound": "C[Si](C)(C)O[Si](C)(C)O[Si](C)(C)C", "Classification": "inactive"}
{"Compound": "CCOC(=O)CC(=O)OCC", "Classification": "inactive"}
{"Compound": "O=C1NC(=O)[C@@H]2CC=CC[C@H]12", "Classification": "inactive"}
{"Compound": "O=C(c1ccccc1)c1ccccc1O", "Classification": "active"}
{"Compound": "c1ccc(CNc2ncnc3nc[nH]c23)cc1", "Classification": "inactive"}
{"Compound": "O=C(O)c1ccccc1C(=O)O", "Classification": "inactive"}
{"Compound": "CN(C)c1ccc(C(c2ccccc2)c2ccc(N(C)C)cc2)cc1", "Classification": "inactive"}
{"Compound": "O=C1NC(=O)C2CC=CCC12 (stereo unspecified)", "Classification": "inactive"}
{"Compound": "C=C1CC[C@H]2C[C@@H]1C2(C)C", "Classification": "inactive"}
{"Compound": "O=C1CCCCCCCCCCCCCC1", "Classification": "active"}
{"Compound": "NCc1ccccc1", "Classification": "inactive"}

----------
assay: CCTE_Shafer_MEA_dev_burst_rate: CCTE's Neural Network Formation Assay for Burst Rate, Shafer Lab (AID 2284042)
Calls of active or inactive are those of the source. How the source made its calls: active means hit-call score of the fitted dose curve at least 0.9, where 1 is the maximum; inactive means score below 0.9.
Possible outcomes: active, inactive

{"Compound": "Cc1c(O)cccc1C(=O)N[C@@H](CSc1ccccc1)[C@H](O)CN1C[C@H]2CCCC[C@H]2C[C@H]1C(=O)NC(C)(C)C", "Classification": "active"}
{"Compound": "CC1(C)S[C@@H]2[C@H](NC(=O)[C@H](N)c3ccc(O)cc3)C(=O)N2[C@H]1C(=O)O", "Classification": "inactive"}
{"Compound": "[Cl-].[Cl-].[NH2-].[NH2-].[Pt+4]", "Classification": "inactive"}
{"Compound": "C[C@H](CS)C(=O)N1CCC[C@H]1C(=O)O", "Classification": "inactive"}
{"Compound": "CNCCC(Oc1ccc(C(F)(F)F)cc1)c1ccccc1 (stereo not given)", "Classification": "active"}

----------
Test: TOX21_p53_BLA_p2_viability: Viability Assessment in the Tox21 HCT-116 p53 Agonism Beta-lactamase Assay, Phase 2 (AID 2283591);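 note: compound exposure lasted 16 h at 37 °C; actives lower the ATP signal meaning cytotoxicity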
Text: TOX21_p53_BLA_p2 is a cell-based, single-readout assay that uses HCT116, a human intestinal cell line, […] in a 1536-well plate.TOX21_p53_BLA_p2_viability is an assay readout measuring cellular ATP content and detected with CellTiter-Glo Luciferase-coupled ATP quantitation.TOX21_p53_BLA_p2_viability used a type of viability reporter where loss-of-signal activity can be used to understand changes in the cell viability. […]
Results filed as inconclusive are left out. Active and inactive are the calls of the source. Rule for the calls: active = hit-call score of the fitted dose curve at least 0.9, where 1 is the maximum; inconclusive = response in the unintended direction; inactive = score below 0.9.
Outcome codes: yes (1) for active, no (0) for inactive

{"Compound": "C[N+]1(CCCCC[N+]2(C)CCCC2)CCCC1", "Classification": "no (0)"}
{"Compound": "COc1ccccc1N1CCN(CCCCNC(=O)c2ccc(-c3ccc(C(C)=O)cc3)cc2)CC1", "Classification": "no (0)"}
{"Compound": "N#C[C@@H]1C[C@@H]2C[C@@H]2N1C(=O)[C@@H](N)C12CC3CC(CC(O)(C3)C1)C2", "Classification": "no (0)"}
{"Compound": "Cc1ccc2c(Br)cc(Br)c(O)c2n1", "Classification": "no (0)"}
{"Compound": "Cc1cc(Cl)c(C)cc1Cl", "Classification": "no (0)"}
{"Compound": "Cc1ccc(O)c(O)c1", "Classification": "yes (1)"}
{"Compound": "C[C@H](NCCc1ccc(O)cc1)[C@H](O)c1ccc(O)cc1", "Classification": "no (0)"}
{"Compound": "C=C1c2c(Cl)ccc(O)c2C(O)=C2C(=O)[C@]3(O)C(O)=C(C(N)=O)C(=O)[C@@H](N(C)C)[C@@H]3[C@@H](O)[C@H]12", "Classification": "no (0)"}
{"Compound": "O=P(O)(OCc1ccccc1)OCc1ccccc1", "Classification": "no (0)"}
{"Compound": "CC(=O)NCCCS(=O)(=O)O", "Classification": "no (0)"}
{"Compound": "Cc1ncc(CO)c(CN)c1O", "Classification": "no (0)"}
{"Compound": "CC(=O)c1cc(C)oc1C", "Classification": "no (0)"}
{"Compound": "CC(CNC1CCCCC1)OC(=O)c1ccccc1 (stereo not drawn)", "Classification": "no (0)"}
{"Compound": "C=CCNC1=C2C[C@@H](C)C[C@H](OC)[C@H](O)[C@@H](C)/C=C(\\C)[C@H](OC(N)=O)[C@@H](OC)/C=C\\C=C(/C)C(=O)NC(=CC1=O)C2=O", "Classification": "no (0)"}
{"Compound": "COc1cc([C@@H]2c3cc4c(cc3C(O[C@@H]3O[C@@H]5COC(c6cccs6)O[C@H]5[C@H](O)[C@H]3O)C3COC(=O)[C@@H]32)OCO4)cc(OC)c1O (stereo partly drawn)", "Classification": "no (0)"}
{"Compound": "O=C(O)c1cccc(/C=C2/C[C@@H]3[C@@H](/C=C/[C@@H](O)C4CCCCC4)[C@H](O)C[C@@H]3O2)c1", "Classification": "no (0)"}
{"Compound": "O=C(O)c1ccc(OCCCOc2ccc(C(=O)O)cc2)cc1", "Classification": "no (0)"}
{"Compound": "CCC(C(=O)OCCN(CC)CC)c1ccccc1 (stereo not drawn)", "Classification": "no (0)"}
